# assayed-system: T1, wild-type tau (441 amino acids; tau441; NP_005901.2) (human, UniProt P10636 1-758)
# T1 construct: Unphosphorylated recombinant tau441 used in the wild-type tau ELISA; also called wt tau441; wtTau
# T1 sequence (P10636 other isoform, or with tags, fused parts or gaps limits assumed): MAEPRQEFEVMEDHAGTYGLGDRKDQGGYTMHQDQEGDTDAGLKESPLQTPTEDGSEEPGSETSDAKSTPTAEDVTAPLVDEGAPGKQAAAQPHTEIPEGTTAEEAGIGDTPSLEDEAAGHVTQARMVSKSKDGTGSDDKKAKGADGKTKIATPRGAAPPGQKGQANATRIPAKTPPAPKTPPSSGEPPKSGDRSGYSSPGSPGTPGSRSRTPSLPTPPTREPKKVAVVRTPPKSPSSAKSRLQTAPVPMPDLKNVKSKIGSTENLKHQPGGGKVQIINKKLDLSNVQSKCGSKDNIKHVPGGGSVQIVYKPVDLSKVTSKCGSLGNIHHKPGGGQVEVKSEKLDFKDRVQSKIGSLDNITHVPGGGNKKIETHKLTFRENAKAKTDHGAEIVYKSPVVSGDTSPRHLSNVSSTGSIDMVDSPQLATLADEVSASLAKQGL
# assay-explanation: wild-type tau ELISA, ExpiCHO supernatant
measured-parameter: binding result

IPN002 antibody expressed from CB6-IPN002-LT2AH (TAU_ITR87) (antibody, V domains shown, Full antibody) VH: EVHLVESGGALVKPGGSLKLSCAASGFSFSKYGMSWVRQTPDKRLEWVATISSSGSRTYYPDSVKGQFTISRDNAKNTLYLQMSSLKSEDTAMYYCSISWDGAMDYWGQGTSVTVSS VL: DVLMTQTPLSLPVSLGDQASISCKSSQSIVHSNGNTYLEWYLQKPGQSPKLLVYKVSNRFSGVPDRFSGSGSGTDFTLKISRVEAEDLGTYYCFQGSLVPWAFGGGTKLEIK; binds
IPN002 antibody expressed from CAG-IPN002-LT2AH (TAU_ITR10) (antibody, V domains shown, Full antibody) VH: EVHLVESGGALVKPGGSLKLSCAASGFSFSKYGMSWVRQTPDKRLEWVATISSSGSRTYYPDSVKGQFTISRDNAKNTLYLQMSSLKSEDTAMYYCSISWDGAMDYWGQGTSVTVSS VL: DVLMTQTPLSLPVSLGDQASISCKSSQSIVHSNGNTYLEWYLQKPGQSPKLLVYKVSNRFSGVPDRFSGSGSGTDFTLKISRVEAEDLGTYYCFQGSLVPWAFGGGTKLEIK; binds

Source listed as patent US20220339270A1.
